Kindly state Ki for each of the entries shown.

-- ask Fetch value of Ki on 5-hydroxytryptamine receptor 4 (Rattus norvegicus) for "Nc1c(Cl)cc(C(=O)OCC2CCN(CCCF)CC2)c2c1OCCO2" .
Sequence (Q62758 whole entry): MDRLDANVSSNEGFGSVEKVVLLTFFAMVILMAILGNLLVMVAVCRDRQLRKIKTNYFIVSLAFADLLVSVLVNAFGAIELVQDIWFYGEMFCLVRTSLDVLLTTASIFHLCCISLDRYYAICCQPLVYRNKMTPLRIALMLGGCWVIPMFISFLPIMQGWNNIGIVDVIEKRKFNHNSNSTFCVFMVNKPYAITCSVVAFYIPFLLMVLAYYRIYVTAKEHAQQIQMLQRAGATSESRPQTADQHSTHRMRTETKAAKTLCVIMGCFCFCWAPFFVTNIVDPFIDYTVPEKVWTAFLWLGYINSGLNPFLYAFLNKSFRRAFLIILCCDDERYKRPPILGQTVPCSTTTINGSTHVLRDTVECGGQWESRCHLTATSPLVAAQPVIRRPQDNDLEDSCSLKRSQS
-- reply 0.07 nM

-- ask Determine reported Ki for "Nc1c(Cl)cc(C(=O)OCC2CCN(CCF)CC2)c2c1OCCO2" ; test system: 5-hydroxytryptamine receptor 4 (Rattus norvegicus).
-- reply 0.2 nM

---

assay.metric: Kd (nM)
Number only, in nM; omit the unit.

-- ask State Kd (5-hydroxytryptamine receptor 4 (Rattus norvegicus)) of "CCCCN1CCC(COC(=O)c2cc(I)c(N)c3c2OCCO3)CC1" .
-- reply 0.3
